# assay_conditions: in 3-pentanone, 294.65 K
assay_metric: solubility (mole fraction)
Give bare numbers.

Just so you know, measured solubility (mole fraction) for CC(C)COc1ccc(B(O)O)cc1 came out at 0.114

----------
# assay_conditions: in dipropyl ether, 298.65 K
assay_metric: solubility (mole fraction)
Give bare numbers.

Just so you know, measured solubility (mole fraction) for CC(C)COc1cccc(B(O)O)c1 came out at 0.103

----------
# assay_conditions: in chloroform, 316.35 K
assay_metric: solubility (mole fraction)

Just so you know, measured solubility (mole fraction) for CC(C)COc1ccc(B(O)O)cc1 came out at 0.0668

----------
# assay_conditions: in chloroform, 338.75 K
assay_metric: solubility (mole fraction)
One number for each entry.

Just so you know, measured solubility (mole fraction) for CC(C)COc1ccc(B(O)O)cc1 came out at 0.183
